Origin of measurements: ChEMBL document CHEMBL2157992

- System: Jurkat
- experimental-details: Antiproliferative activity against human Jurkat cells assessed as parent population at 10 uM after 24 hrs using CFSE staining by flow cytometry (reference value: 23.70 %)
- Type: functional
Label Met when Activity >= 10%; otherwise Not met.

>  <compound>
CC[C@@H](CC[C@H]1OC1(C)C)c1ccccc1O (relative stereo)

>  <test-system>
Jurkat

>  <label-class>
Met

$$$$
>  <compound>
Cc1ccc([C@@H](C)CC[C@@H]2CO2)c(O)c1 (relative stereo)

>  <test-system>
Jurkat

>  <label-class>
Not met

$$$$
>  <compound>
Cc1ccc([C@H](C)CC[C@H]2OC2(C)C)c(O)c1 (relative stereo)

>  <test-system>
Jurkat

>  <label-class>
Not met

$$$$
>  <compound>
CC[C@H](CC[C@H]1OC1(C)C)c1ccccc1O (relative stereo)

>  <test-system>
Jurkat

>  <label-class>
Met

$$$$
>  <compound>
CC1(C)OC1CCCc1cc(O)ccc1O (stereo not given)

>  <test-system>
Jurkat

>  <label-class>
Met

$$$$
>  <compound>
C[C@@H](CC[C@H]1OC1(C)C)c1cc(O)ccc1O (relative stereo)

>  <test-system>
Jurkat

>  <label-class>
Not met

$$$$
>  <compound>
CC[C@H](CC[C@H]1OC1(C)C)c1cc(O)ccc1O (relative stereo)

>  <test-system>
Jurkat

>  <label-class>
Met

$$$$
>  <compound>
CC[C@@H](CC[C@@H]1CO1)c1cc(O)ccc1O (relative stereo)

>  <test-system>
Jurkat

>  <label-class>
Not met

$$$$
>  <compound>
CC[C@@H](CC[C@H]1OC1(C)C)c1cc(O)ccc1O (relative stereo)

>  <test-system>
Jurkat

>  <label-class>
Met

$$$$
>  <compound>
CC[C@H](CC[C@@H](C)O)c1ccccc1O (relative stereo)

>  <test-system>
Jurkat

>  <label-class>
Not met

$$$$
